These measurements were taken from paper PMC5892938.

target: GST-SBP-SLBP (stem-loop binding protein) (Homo sapiens, UniProt Q14493 1-270); assay: targeted RNA Bind-n-Seq; RBNS binding buffer: 25 mM Tris pH 7.5, 150 mM KCl, 3 mM MgCl2, 0.1% Tween, 0.5 mg/mL BSA, 1 mM DTT; 27 nM protein, 750 pM RNA pool; temperature not stated; high values mean tight binding; details: protein: recombinant; tags: N-terminal GST and SBP (pGEX6P1-SBP)
Where binding signal equals or exceeds 3 log2 fold change, the correct label is criterion met; where it does not, the label is criterion not met.

>>> print(df.to_string())
                                     binder     classification
0  consensus (structured_RNA) RNA: GGUCACGUCUCAAUCAACUCCCAAAGGUCUUUCUUAAGGCCACCCAUCAACAGCUCGCAGUCAAG  criterion not met
1  consensus (structured_RNA) RNA: GGUCACGUCUCAAUCAACUCCCAAAGGCCCUUCUUAGGGCCACCCAUCAACAGCUCGCAGUCAAG      criterion met
2  consensus (structured_RNA) RNA: GGUCACGUCUCAAUCAACUCCCAAAGGUCUUUUUAAAGACCACCCAUCAACAGCUCGCAGUCAAG      criterion met
